Just for reference, patent US8546377B2 is where these values come from.

- Target of assay: 5HT2B receptors (Homo sapiens)
- Construct: expressed in transfected cells; host or cells: CHO-K1 cells
- Sequence (P41595 whole entry): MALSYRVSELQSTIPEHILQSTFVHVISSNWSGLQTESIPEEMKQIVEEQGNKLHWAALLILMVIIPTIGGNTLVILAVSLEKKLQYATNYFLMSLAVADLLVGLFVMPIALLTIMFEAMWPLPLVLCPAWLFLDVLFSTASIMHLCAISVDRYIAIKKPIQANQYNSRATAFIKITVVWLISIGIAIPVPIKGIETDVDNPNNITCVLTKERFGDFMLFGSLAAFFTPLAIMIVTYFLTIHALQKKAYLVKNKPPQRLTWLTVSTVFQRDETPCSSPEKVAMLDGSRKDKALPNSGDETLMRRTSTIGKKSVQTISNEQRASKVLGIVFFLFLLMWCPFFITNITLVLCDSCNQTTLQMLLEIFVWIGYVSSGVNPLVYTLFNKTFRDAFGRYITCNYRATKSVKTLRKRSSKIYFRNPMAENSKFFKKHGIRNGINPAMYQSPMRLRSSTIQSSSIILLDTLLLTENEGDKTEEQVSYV
- Protocol text: Human 5-HT2B functional assay in CHO-K1 cells (calcium flux, FLIPR)
- Type: cell-based
- Assay conditions: read-out: EC50 (μM), 5-HT2B Agonist Activity; CHO-K1 cells over-expressing 5HT2B, calcium flux
Measurement name: EC50

IN: What EC50 value was documented for this molecule, COc1ccc2c(c1)OCC[C@H]1CNCCN21 ?
OUT: > 10 µM

* * *

- Target of assay: h-5-HT6 receptor (Homo sapiens)
- Construct: expressed in transfected cells; host or cells: HEK293 cells (membrane preparation)
- Sequence (P50406 whole entry): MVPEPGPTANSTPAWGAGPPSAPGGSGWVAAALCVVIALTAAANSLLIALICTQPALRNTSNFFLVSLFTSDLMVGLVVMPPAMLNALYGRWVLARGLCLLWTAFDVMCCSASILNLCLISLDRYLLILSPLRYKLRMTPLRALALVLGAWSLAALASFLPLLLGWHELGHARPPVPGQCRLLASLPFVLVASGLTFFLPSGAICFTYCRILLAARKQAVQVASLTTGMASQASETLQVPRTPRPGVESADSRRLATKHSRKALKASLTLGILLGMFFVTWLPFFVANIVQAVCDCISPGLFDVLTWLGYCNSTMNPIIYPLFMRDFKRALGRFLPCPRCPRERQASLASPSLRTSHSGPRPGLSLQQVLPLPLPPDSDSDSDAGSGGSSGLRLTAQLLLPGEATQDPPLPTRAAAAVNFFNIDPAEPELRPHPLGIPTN
- Protocol text: Human 5-HT6 receptor radioligand binding assay ([3H]-LSD, HEK293 membranes)
Reported Ki values are given for each entry in this list.
For clarity, give the value followed by its unit.

IN: What Ki value was documented for this molecule, Cc1cccc2c1OCC[C@H]1CNCCN21 ?
OUT: 2.06 µM

Switching to the query record.
IN: What Ki value was documented for this molecule, CN1CCN2c3cccc(F)c3OCC[C@H]2C1 ?
OUT: 0.855 µM
